- TEST: A CellTox Green Cytotoxicity Assay to monitor cytotoxicity in HEK293 cells - 32 hour (AID 1224881); also: nearly all actives have a fitted effect of over 40% in size
- EXPERIMENTAL CONTEXT: CellTox Green fluorescence; series mostly up to 76.8 µM
Records with an inconclusive call do not appear. Calls of active or inactive are those of the source. Calls follow the shape of the dose curve; as a rule, active = well fitted activation curve with a large enough effect in the repeat runs; inconclusive = weak or mixed curves; inactive = flat fitted curve, though single readings scatter.
Bench note: report the call from active, inactive

How did this test come out for Cn1cccc1 ?
inactive

What did the test return for CCCCOc1ccc(C(=O)CCN2CCCCC2)cc1 ?
active

Per the records of this test, what outcome belongs to Cc1nc(Nc2ncc(C(=O)Nc3c(C)cccc3Cl)s2)cc(N2CCN(CCO)CC2)n1 ?
inactive

Per the records of this test, what outcome belongs to CCCCCCCC/C=C\CCCCCCCC(=O)OCCOC(=O)CCCCCCC/C=C\CCCCCCCC ?
inactive

Per the records of this test, what outcome belongs to O=c1cccc[nH]1 ?
inactive

Given CC(O)C#CC(C)O (stereo unspecified) , state the outcome it received in this test.
active

Any idea what this test logged for CCc1cccc(CC)c1N(COC)C(=O)CS(=O)(=O)O ?
inactive

Outcome logged for Cc1c(-c2ccc(O)cc2)n(Cc2ccc(OCCN3CCCCCC3)cc2)c2ccc(O)cc12 in this assay:
active

Write down the call the test reported for this compound. Item: C=CCCCCCCC=C
inactive

// outcome(item) with item = Cc1cccc(C)n1
inactive

Call for entry C=CC(=O)OCCN(CC)CC :
inactive

# outcome recorded in this test, key = NC(=O)c1ccccc1N
inactive

# fetch the recorded call for CC(=O)Nc1ccc(O)cc1 here
inactive

What is the recorded call for this compound in the test? CN(C)CCCN1c2ccccc2Sc2ccc(C(F)(F)F)cc21
active

Which outcome was entered for the compound C#CC(O)CCC (stereo unspecified) in this test?
inactive

Hey, what did the test say about CN1[C@@H]2CC[C@H]1CC(OC(=O)C(CO)c1ccccc1)C2 (stereo partly specified) ?
inactive

Check the results log: what was the call for O=C(O)Cc1ccc(OCCNC[C@H](O)c2ccccc2)cc1 ?
inactive

Could you check what this test reported for OCCCCl ?
inactive

Entry c1cc(OCC2CO2)cc(OCC2CO2)c1 (stereo unspecified) : call = ?
inactive

Short answer needed: outcome of this test for CN(C)CCN1CCOCC1 ?
inactive

Check the results log: what was the call for CCCCCCCC(OC)OC ?
inactive

Give the logged outcome of this assay for the following compound: SCCCCCCCCS
inactive

Record request — test call for CCOCOCC
inactive

Called result for C/C=C/CO
inactive

# lookup: test call for CCOC(OCC)C(=O)c1ccccc1
inactive

I'd appreciate the recorded outcome for C=CC/C=C/C/C=C/C/C=C/C from this test.
inactive

Tell me the recorded outcome of this test for CN1CCN(C2Cc3ccccc3Sc3ccc(Cl)cc32)CC1 (stereo unspecified) .
active

Any idea what this test logged for S=P(N1CC1)(N1CC1)N1CC1 ?
inactive

Call for entry CC(COC(=O)c1ccccc1)OC(=O)c1ccccc1 (stereo unspecified) :
inactive

Test call, this compound: CCCCCCCCCCc1ccccc1
inactive

# fetch the recorded call for Cc1ccc2ccc3cccc4ccc1c2c34 here
inactive
